- system_under_test: human Aurora-C (Homo sapiens, UniProt Q9UQB9)
- Construct: GST; made in house; host or cells: transiently transfected HEK293 cells
- Sequence (Q9UQB9 whole entry): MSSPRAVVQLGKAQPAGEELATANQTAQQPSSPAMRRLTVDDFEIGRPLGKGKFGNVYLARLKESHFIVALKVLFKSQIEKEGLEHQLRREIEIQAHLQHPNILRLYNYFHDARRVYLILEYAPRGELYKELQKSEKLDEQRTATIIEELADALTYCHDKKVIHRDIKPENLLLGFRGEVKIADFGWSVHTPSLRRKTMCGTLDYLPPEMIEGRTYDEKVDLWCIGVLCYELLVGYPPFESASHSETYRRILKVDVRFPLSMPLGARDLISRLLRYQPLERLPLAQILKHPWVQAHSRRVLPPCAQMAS
- procedure_details: Aurora-C kinase assay (HTRF)
- Assay type: biochemical
- assay_setup: 10 μM ATP

{"compound": "C[C@@H](O)[C@@H](C)Oc1nc(Nc2ccc(C(=O)N=S(C)(C)=O)cc2)ncc1Br [Example 20]", "IC50": "310 nM"}
{"compound": "COc1cc(Nc2ncc(Br)c(N[C@H](C)[C@@H](C)O)n2)ccc1NC(=O)N=S(C)(C)=O [Example 11]", "IC50": "430 nM"}
{"compound": "C[C@@H](O)[C@@H](C)Nc1nc(Nc2cccc(C(=O)N=S(C)(C)=O)c2)ncc1Br [Example 17]", "IC50": "2000 nM"}
{"compound": "C[C@@H](Nc1nc(Nc2ccc(NC(=O)N=S(C)(C)=O)cc2)ncc1Br)C(C)(C)O [Example 2]", "IC50": "400 nM"}
{"compound": "COc1ccc(Nc2ncc(Br)c(N[C@H](C)[C@@H](C)O)n2)cc1NC(=O)N=S(C)(C)=O [Example 10]", "IC50": "410 nM"}
{"compound": "C[C@@H](O)[C@@H](C)Nc1nc(Nc2cccc(NC(=O)N=S(C)(C)=O)c2)ncc1Br [Example 5]", "IC50": "54 nM"}
{"compound": "CS(C)(=O)=NC(=O)Nc1ccc(Nc2ncc(Br)c(Nc3ccc4[nH]cnc4c3)n2)cc1 [Example 16]", "IC50": "400 nM"}
{"compound": "C[C@@H](O)[C@@H](C)Nc1nc(Nc2ccc(F)c(NC(=O)N=S(C)(C)=O)c2)ncc1Br [Example 7]", "IC50": "370 nM"}

* * *

- Tested on: Aurora C, CDK1/CycB, CDK2/CycE, KDR (VEGFR2)
- procedure_details: various kinase assays taken together (selectivity profile)
- Type: biochemical
- assay_setup: comparison across the kinase assays, in words

{"smi": "C[C@@H](O)[C@@H](C)Nc1nc(Nc2ccc(NC(=O)N=S(C)(C)=O)cc2)ncc1C(F)(F)F", "selectivity profile": "CDK-selective"}
{"smi": "C[C@@H](O)[C@@H](C)Nc1nc(Nc2cccc(C(=O)N=S(C)(C)=O)c2)ncc1Br", "selectivity profile": "CDK-selective"}
{"smi": "Cc1c(NC(=O)N=S(C)(C)=O)cccc1Nc1ncc(Br)c(N[C@H](C)[C@@H](C)O)n1", "selectivity profile": "CDK-selective"}

* * *

Consider the following IC50 values measured on UniProtKB P35968.
Sequence (P35968 807-1356 limits assumed): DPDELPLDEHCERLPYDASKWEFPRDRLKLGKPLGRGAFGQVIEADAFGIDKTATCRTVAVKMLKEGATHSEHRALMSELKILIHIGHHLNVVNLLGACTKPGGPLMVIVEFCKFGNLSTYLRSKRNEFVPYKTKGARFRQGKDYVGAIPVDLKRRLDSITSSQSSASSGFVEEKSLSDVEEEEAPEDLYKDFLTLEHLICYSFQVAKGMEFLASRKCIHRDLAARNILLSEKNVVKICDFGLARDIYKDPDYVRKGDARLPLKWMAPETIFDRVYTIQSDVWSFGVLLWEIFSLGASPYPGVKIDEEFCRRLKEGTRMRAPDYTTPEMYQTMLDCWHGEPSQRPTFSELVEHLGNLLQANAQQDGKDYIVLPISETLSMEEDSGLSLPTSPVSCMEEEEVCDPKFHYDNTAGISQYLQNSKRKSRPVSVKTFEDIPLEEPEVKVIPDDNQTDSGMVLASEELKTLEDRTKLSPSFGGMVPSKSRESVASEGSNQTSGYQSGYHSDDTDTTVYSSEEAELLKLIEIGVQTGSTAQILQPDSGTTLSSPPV

{"molecule": "Cc1c(NC(=O)N=S(C)(C)=O)cccc1Nc1ncc(Br)c(N[C@H](C)[C@@H](C)O)n1 [Example 9]", "system_under_test": "UniProtKB P35968", "IC50": "> 1000 nM"}
{"molecule": "C[C@@H](Nc1nc(Nc2cccc(NC(=O)N=S(C)(C)=O)c2)ncc1Br)C(C)(C)O [Example 1]", "system_under_test": "UniProtKB P35968", "IC50": "170 nM"}
{"molecule": "C[C@@H](O)[C@@H](C)Nc1nc(Nc2ccc(C(=O)N=S(C)(C)=O)cc2)ncc1Br [Example 18]", "system_under_test": "UniProtKB P35968", "IC50": "61 nM"}

* * *

- system_under_test: CDK1/CycB (Homo sapiens, UniProt P06493)
- Construct: GST
- Sequence (P06493 whole entry): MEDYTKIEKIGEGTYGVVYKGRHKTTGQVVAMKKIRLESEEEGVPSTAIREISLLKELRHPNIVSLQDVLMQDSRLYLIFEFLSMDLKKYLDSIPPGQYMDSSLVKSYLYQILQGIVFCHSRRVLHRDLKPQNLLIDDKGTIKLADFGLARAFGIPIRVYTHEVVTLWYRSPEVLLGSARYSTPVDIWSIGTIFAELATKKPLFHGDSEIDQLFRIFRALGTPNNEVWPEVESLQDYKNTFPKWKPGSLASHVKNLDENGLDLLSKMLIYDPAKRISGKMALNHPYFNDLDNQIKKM
- Sequence (P14635 whole entry partner): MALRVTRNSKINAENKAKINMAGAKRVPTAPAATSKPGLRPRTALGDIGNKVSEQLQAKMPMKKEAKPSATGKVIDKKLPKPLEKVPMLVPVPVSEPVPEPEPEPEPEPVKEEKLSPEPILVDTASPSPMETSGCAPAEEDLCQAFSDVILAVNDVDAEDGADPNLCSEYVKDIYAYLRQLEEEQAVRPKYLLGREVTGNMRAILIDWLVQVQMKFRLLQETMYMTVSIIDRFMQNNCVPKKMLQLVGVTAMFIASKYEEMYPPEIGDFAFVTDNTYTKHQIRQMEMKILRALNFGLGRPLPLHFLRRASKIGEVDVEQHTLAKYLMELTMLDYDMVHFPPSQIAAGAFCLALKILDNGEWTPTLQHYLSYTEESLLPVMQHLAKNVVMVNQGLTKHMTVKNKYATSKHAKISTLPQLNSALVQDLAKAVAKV
- procedure_details: CDK1/CycB kinase assay
- assay_setup: 0.5 μM ATP
pIC50: −log10 of the molar value.
Measured pIC50, listed per entry for reference.

{"smi": "C[C@@H](O)[C@@H](C)Nc1nc(Nc2ccc(NC(=O)N=S(C)(C)=O)cc2)ncc1C(F)(F)F", "pIC50": 7.82}
{"smi": "C[C@@H](O)[C@@H](C)Oc1nc(Nc2cccc(NC(=O)N=S(C)(C)=O)c2)ncc1Br", "pIC50": 8.15}
{"smi": "COc1ccc(Nc2ncc(Br)c(N[C@H](C)[C@@H](C)O)n2)cc1NC(=O)N=S(C)(C)=O", "pIC50": 7.59}
{"smi": "C[C@@H](O)[C@@H](C)Nc1nc(Nc2ccc(Cl)c(NC(=O)N=S(C)(C)=O)c2)ncc1Br", "pIC50": 7.74}
{"smi": "C[C@@H](O)[C@@H](C)Nc1nc(Nc2ccc(F)c(NC(=O)N=S(C)(C)=O)c2)ncc1Br", "pIC50": 8.00}
{"smi": "CS(C)(=O)=NC(=O)Nc1ccc(Nc2ncc(Br)c(Nc3ccc4[nH]cnc4c3)n2)cc1", "pIC50": 6.85}
{"smi": "COc1cc(Nc2ncc(Br)c(N[C@H](C)[C@@H](C)O)n2)ccc1NC(=O)N=S(C)(C)=O", "pIC50": 7.34}
{"smi": "C[C@@H](O)[C@@H](C)Nc1nc(Nc2ccc(C(=O)N=S(C)(C)=O)cc2)ncc1Br", "pIC50": 7.74}

* * *

- system_under_test: CDK2/CycE (Homo sapiens)
- Construct: GST
- procedure_details: CDK2/CycE kinase assay
- assay_setup: 0.5 μM ATP
- Description: Recombinant CDK2- and CycE-GST fusion proteins, purified from baculovirus-infected insect cells (Sf9), were purchased from ProQinase GmbH, Freiburg. The histone IIIS used as kinase substrate was purchased from Sigma. […]
pIC50: −log10 of the molar value.
measure: pIC50

{"smi": "C[C@@H](O)[C@@H](C)Nc1nc(Nc2ccc(Cl)c(NC(=O)N=S(C)(C)=O)c2)ncc1Br", "measure": "pIC50", "data_value": 8.05}
{"smi": "COc1ccc(Nc2ncc(Br)c(N[C@H](C)[C@@H](C)O)n2)cc1NC(=O)N=S(C)(C)=O", "measure": "pIC50", "data_value": 7.70}
{"smi": "C[C@@H](Nc1nc(Nc2ccc(NC(=O)N=S(C)(C)=O)cc2)ncc1Br)C(C)(C)O", "measure": "pIC50", "data_value": 8.00}
{"smi": "CS(C)(=O)=NC(=O)Nc1ccc(Nc2ncc(Br)c(Nc3ccc4[nH]cnc4c3)n2)cc1", "measure": "pIC50", "data_value": 6.48}

* * *

- system_under_test: CDK2/CycE (Homo sapiens)
- Construct: GST; purchased ProQinase GmbH, Freiburg; host or cells: baculovirus-infected insect cells (Sf9)
- procedure_details: CDK2/CycE kinase assay
- Format: biochemical
- assay_setup: 0.5 μM ATP
measure: IC50 (nM)

{"smi": "Cc1c(NC(=O)N=S(C)(C)=O)cccc1Nc1ncc(Br)c(N[C@H](C)[C@@H](C)O)n1", "system_under_test": "CDK2/CycE (Homo sapiens)", "data_value": 43}
{"smi": "C[C@@H](O)[C@@H](C)Nc1nc(Nc2ccc(NC(=O)N=S(C)(C)=O)cc2)ncc1Br", "system_under_test": "CDK2/CycE (Homo sapiens)", "data_value": 5}
{"smi": "C[C@@H](O)[C@@H](C)Oc1nc(Nc2ccc(NC(=O)N=S(C)(C)=O)cc2)ncc1Br", "system_under_test": "CDK2/CycE (Homo sapiens)", "data_value": 5}
{"smi": "C[C@@H](O)[C@@H](C)Nc1nc(Nc2ccc(NC(=O)N=S(C)(C)=O)cc2)ncc1C(F)(F)F", "system_under_test": "CDK2/CycE (Homo sapiens)", "data_value": 9}
{"smi": "C[C@@H](O)[C@@H](C)Nc1nc(Nc2ccc(C(=O)N=S(C)(C)=O)cc2)ncc1Br", "system_under_test": "CDK2/CycE (Homo sapiens)", "data_value": 9}
{"smi": "C[C@@H](O)[C@@H](C)Nc1nc(Nc2cccc(NC(=O)N=S(C)(C)=O)c2)ncc1Br", "system_under_test": "CDK2/CycE (Homo sapiens)", "data_value": 5}
{"smi": "C[C@@H](Nc1nc(Nc2cccc(NC(=O)N=S(C)(C)=O)c2)ncc1Br)C(C)(C)O", "system_under_test": "CDK2/CycE (Homo sapiens)", "data_value": 9}
{"smi": "C[C@@H](O)[C@@H](C)Oc1nc(Nc2ccc(C(=O)N=S(C)(C)=O)cc2)ncc1Br", "system_under_test": "CDK2/CycE (Homo sapiens)", "data_value": 12}

* * *

Measured IC50, listed per entry for reference.
- system_under_test: UniProtKB Q9UQB9
measure: IC50

{"smi": "C[C@@H](O)[C@@H](C)Nc1nc(Nc2ccc(C(=O)N=S(C)(C)=O)cc2)ncc1Br", "measure": "IC50", "data_value": "280 nM"}
{"smi": "C[C@@H](O)[C@@H](C)Nc1nc(Nc2ccc(Cl)c(NC(=O)N=S(C)(C)=O)c2)ncc1Br", "measure": "IC50", "data_value": "1300 nM"}
{"smi": "C[C@@H](O)[C@@H](C)Nc1nc(Nc2ccc(NC(=O)N=S(C)(C)=O)cc2)ncc1C(F)(F)F", "measure": "IC50", "data_value": "150 nM"}
{"smi": "C[C@@H](Nc1nc(Nc2cccc(NC(=O)N=S(C)(C)=O)c2)ncc1Br)C(C)(C)O", "measure": "IC50", "data_value": "160 nM"}
